tested.target: PI 3-kinase delta (Homo sapiens)
Sequence (O00329 whole entry): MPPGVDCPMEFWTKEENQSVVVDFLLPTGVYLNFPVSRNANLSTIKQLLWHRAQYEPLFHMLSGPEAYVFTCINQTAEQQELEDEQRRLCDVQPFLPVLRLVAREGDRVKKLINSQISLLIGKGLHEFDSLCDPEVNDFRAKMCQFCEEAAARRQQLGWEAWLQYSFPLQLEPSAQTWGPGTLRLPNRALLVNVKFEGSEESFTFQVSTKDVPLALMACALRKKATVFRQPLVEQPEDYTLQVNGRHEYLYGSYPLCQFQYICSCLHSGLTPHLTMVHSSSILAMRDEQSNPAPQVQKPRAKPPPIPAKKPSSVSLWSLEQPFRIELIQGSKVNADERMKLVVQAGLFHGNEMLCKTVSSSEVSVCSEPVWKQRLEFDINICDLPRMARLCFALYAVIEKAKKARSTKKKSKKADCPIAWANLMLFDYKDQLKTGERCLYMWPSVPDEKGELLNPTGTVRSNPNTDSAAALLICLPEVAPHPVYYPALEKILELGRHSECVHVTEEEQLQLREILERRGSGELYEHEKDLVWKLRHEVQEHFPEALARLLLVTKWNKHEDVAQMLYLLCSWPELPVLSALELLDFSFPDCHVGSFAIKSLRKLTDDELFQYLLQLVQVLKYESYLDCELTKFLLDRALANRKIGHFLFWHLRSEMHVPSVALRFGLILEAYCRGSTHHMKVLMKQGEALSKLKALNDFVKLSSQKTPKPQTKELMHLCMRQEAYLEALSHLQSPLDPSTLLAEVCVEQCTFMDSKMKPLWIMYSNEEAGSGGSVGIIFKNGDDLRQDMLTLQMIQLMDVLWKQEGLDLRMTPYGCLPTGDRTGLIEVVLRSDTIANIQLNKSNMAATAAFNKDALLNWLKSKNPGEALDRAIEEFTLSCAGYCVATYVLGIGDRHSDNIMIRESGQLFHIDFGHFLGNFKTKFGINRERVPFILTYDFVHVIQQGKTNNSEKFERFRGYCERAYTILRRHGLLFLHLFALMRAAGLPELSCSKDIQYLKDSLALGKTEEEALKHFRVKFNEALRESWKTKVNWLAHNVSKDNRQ
Sequence (P27986 461-568 partner): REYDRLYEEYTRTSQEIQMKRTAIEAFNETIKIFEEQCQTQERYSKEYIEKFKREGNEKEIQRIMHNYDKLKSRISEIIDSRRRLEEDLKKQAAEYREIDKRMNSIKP
method.description: TR-FRET Adapta assay, assay F
condition.label: read-out: Assay F PI3Kδ IC50
Criterion: IC50 strictly less than 600 nM. Met: YES. Not met: NO.

>>> label("Cc1cc(-c2nc(-c3cc(S(=O)(=O)NCC4(O)CCC4)ccc3C)cnc2N)ccn1 [Example 129.5]")
"YES"
>>> label("Cc1cc(-c2nc(-c3cc(S(=O)(=O)NCCN4CCOCC4)ccc3C)cnc2N)ccn1 [Example 129.28]")
"NO"
>>> label("Cc1ccc(S(=O)(=O)N[C@H]2CC[C@H](O)CC2)cc1-c1cnc(N)c(-n2cncn2)n1 [Example 15]")
"YES"
>>> label("Cc1ccc(S(=O)(=O)NCC2(C)COC2)cc1-c1cnc(N)c(-c2cnn(C)c2)n1 [Example 5]")
"NO"
>>> label("Cc1ccc(S(=O)(=O)NCC2(CO)CCC2)cc1-c1cnc(N)c(-n2cncn2)n1 [Example 127.49]")
"YES"
>>> label("Cc1ccc(S(=O)(=O)N2CCC(F)(F)C2)cc1-c1cnc(N)c(-n2cncn2)n1 [Example 127.3]")
"NO"

###

tested.target: PI 4-kinase beta (Homo sapiens, UniProt Q9UBF8)
Sequence (Q9UBF8 whole entry): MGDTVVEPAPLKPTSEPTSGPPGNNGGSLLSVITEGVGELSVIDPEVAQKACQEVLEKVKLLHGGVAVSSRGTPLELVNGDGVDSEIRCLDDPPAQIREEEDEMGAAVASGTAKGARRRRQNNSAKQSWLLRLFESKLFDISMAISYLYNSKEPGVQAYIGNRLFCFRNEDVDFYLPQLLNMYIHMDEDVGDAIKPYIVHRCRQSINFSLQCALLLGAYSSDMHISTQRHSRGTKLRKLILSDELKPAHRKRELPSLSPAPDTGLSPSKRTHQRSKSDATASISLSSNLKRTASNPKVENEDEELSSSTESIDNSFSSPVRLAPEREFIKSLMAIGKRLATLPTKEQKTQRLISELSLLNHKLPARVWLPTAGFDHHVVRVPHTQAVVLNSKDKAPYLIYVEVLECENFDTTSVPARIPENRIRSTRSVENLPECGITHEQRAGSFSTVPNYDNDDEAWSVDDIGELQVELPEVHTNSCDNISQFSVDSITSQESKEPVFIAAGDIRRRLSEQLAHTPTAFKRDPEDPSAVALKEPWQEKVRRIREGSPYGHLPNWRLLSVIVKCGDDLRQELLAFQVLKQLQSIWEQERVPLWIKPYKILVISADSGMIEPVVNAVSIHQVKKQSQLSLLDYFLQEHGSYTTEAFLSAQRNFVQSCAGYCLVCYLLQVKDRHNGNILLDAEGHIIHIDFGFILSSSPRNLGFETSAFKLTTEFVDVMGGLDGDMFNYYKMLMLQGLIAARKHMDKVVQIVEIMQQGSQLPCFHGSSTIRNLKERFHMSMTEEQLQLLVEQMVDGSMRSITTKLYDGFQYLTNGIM
method.description: Kinase Glo Luminescent Kinase Assay (Kglo), assay D
Assay type: biochemical
condition.label: read-out: Assay D PI4Kβ IC50
Each item that follows carries a reported IC50.
quantity.kind: IC50

>>> measurement("Cc1cc(C)n(-c2nc(-c3cc(S(=O)(=O)NCC(C)(C)O)ccc3C)cnc2N)n1")
"> 10 µM"
>>> measurement("Cc1cn(-c2nc(-c3cc(S(=O)(=O)NCCCO)ccc3C)cnc2N)cn1")
"> 9.1 µM"
>>> measurement("Cc1cc(-c2nc(-c3cc(S(=O)(=O)N4CCC(N)CC4)ccc3C)cnc2N)ccn1")
"> 9.1 µM"
>>> measurement("Cc1ccc(S(=O)(=O)NCC(C)(C)O)cc1-c1cnc(N)c(-c2nc(C(C)C)no2)n1")
"> 10 µM"
>>> measurement("Cc1ccc(S(=O)(=O)NCC2(C(N)=O)CC2)cc1-c1cnc(N)c(-n2cncn2)n1")
"> 10 µM"
>>> measurement("CCN1CCC[C@@H]1CNS(=O)(=O)c1ccc(C)c(-c2cnc(N)c(-n3cncn3)n2)c1")
"> 10 µM"
>>> measurement("CCN1CCC[C@@H]1CNS(=O)(=O)c1ccc(C)c(-c2cnc(N)c(-c3ccnc(C)c3)n2)c1")
"> 9.1 µM"
>>> measurement("Cc1ccc(S(=O)(=O)NC2(CO)CC2)cc1-c1cnc(N)c(-n2cncn2)n1")
"2.5 µM"
>>> measurement("Cc1cc(F)c(S(=O)(=O)NCC(C)(C)O)cc1-c1cnc(N)c(-n2cncn2)n1")
"1.9 µM"
>>> measurement("Cc1ccc(S(=O)(=O)N2CC3(CC(O)C3)C2)cc1-c1cnc(N)c(-n2cncn2)n1")
"2.4 µM"
>>> measurement("CCn1cc(-c2nc(-c3cc(S(=O)(=O)NCCC(C)(C)O)ccc3C)cnc2N)cn1")
"4.25 µM"
>>> measurement("Cc1cc(-c2nc(-c3cc(S(=O)(=O)NC4CCC(CO)CC4)ccc3C)cnc2N)ccn1 (stereo not shown)")
"6.5 µM"
>>> measurement("Cc1ccc(S(=O)(=O)NOCC(C)C)cc1-c1cnc(N)c(-n2cncn2)n1")
"1.1 µM"
>>> measurement("Cc1cc(-c2nc(-c3cc(S(=O)(=O)NC4CC(F)(F)C4)ccc3C)cnc2N)ccn1")
"7 µM"
>>> measurement("Cc1ccc(S(=O)(=O)N[C@H]2C[C@@H](O)C2)cc1-c1cnc(N)c(-n2cncn2)n1 [Example 71b]")
"4.6 µM"
>>> measurement("Cc1cc(-c2nc(-c3cc(S(=O)(=O)NC4CCC(C)(O)CC4)ccc3C)cnc2N)ccn1 (stereo not shown)")
"7.2 µM"
>>> measurement("Cc1cn(-c2nc(-c3cc(S(=O)(=O)N[C@H]4CC[C@H](O)CC4)ccc3C)cnc2N)cn1")
"7.27 µM"
>>> measurement("Cc1ccc(S(=O)(=O)NCCC(C)(C)O)cc1-c1cnc(N)c(-c2cn(C)nc2C)n1")
"> 9.1 µM"
>>> measurement("Cc1ccc(S(=O)(=O)NCC(C)(C)O)cc1-c1cnc(N)c(-c2nn(C)nc2C)n1")
"3.85 µM"

###

tested.target: PI 3-kinase alpha (Homo sapiens, UniProt P42336)
Sequence (P42336 whole entry): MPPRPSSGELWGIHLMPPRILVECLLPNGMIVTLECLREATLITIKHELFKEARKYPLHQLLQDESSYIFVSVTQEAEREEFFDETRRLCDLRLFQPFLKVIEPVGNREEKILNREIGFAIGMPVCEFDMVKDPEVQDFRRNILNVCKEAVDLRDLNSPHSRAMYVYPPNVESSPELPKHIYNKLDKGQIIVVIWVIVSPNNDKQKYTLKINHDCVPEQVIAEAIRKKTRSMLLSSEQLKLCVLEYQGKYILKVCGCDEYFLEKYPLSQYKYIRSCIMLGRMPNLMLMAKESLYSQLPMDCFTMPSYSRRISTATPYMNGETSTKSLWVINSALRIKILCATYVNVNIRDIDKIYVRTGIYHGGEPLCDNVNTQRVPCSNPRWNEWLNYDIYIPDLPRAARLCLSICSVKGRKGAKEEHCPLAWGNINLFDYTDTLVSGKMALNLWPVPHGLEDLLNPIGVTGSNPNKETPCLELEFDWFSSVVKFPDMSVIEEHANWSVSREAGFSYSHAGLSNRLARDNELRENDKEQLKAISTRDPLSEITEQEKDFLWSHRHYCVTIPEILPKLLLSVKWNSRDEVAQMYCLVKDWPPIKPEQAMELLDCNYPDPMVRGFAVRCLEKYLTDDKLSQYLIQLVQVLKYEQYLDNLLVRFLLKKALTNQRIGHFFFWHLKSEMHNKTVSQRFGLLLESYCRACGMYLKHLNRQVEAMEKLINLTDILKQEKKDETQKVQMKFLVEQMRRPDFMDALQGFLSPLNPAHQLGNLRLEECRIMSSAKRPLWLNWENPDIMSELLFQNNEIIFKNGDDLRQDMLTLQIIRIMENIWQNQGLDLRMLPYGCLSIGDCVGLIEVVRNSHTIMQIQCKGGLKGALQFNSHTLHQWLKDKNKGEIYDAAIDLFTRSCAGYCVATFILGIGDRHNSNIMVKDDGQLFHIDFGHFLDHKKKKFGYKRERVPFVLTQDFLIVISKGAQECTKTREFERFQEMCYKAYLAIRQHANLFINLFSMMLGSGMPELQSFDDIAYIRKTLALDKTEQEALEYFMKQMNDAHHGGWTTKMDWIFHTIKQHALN
Sequence (Q63787 whole entry partner): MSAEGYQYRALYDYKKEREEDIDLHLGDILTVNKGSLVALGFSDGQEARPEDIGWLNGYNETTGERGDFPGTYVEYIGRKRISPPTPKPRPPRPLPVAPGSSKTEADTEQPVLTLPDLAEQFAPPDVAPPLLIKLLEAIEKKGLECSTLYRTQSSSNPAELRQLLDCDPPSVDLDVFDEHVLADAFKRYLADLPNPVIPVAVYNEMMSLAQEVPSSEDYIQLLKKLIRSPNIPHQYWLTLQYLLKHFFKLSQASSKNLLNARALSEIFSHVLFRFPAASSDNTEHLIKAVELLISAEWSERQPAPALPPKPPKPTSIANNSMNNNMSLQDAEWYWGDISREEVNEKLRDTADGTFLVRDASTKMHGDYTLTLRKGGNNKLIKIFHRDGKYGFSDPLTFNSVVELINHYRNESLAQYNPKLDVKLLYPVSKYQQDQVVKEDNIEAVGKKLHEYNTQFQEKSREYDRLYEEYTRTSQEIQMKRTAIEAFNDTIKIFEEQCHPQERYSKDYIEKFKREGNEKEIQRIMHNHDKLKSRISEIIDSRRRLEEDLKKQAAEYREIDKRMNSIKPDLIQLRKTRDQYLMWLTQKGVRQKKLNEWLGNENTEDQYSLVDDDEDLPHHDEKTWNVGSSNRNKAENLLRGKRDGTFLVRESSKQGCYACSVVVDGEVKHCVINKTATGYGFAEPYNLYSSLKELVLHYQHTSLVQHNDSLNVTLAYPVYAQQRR
method.description: Cellular assay H1, p-Akt (S473) in Rat-1 cells, Surefire format
Type: cell-based
condition.label: non-asterisked data: version H1 (Surefire format), Rat-1 cells; read-out: Assay H PI3Kα IC50
Counter-ions that a name gives are not always drawn.
Each item that follows carries a reported IC50.
quantity.kind: IC50 (µM)

>>> measurement("Cc1ccc(S(=O)(=O)N[C@H]2C[C@H](O)C2)cc1-c1cnc(N)c(-n2cncn2)n1 [Example 71a]")
3.06
>>> measurement("Cc1ccc(S(=O)(=O)NOCC(C)C)cc1-c1cnc(N)c(-n2cncn2)n1")
0.07
>>> measurement("Cc1ccc(S(=O)(=O)NC[C@@H]2COCCN2C)cc1-c1cnc(N)c(-c2cn(C)nc2C)n1 (single isomer, unassigned)")
5.15
>>> measurement("Cc1cn(-c2nc(-c3cc(S(=O)(=O)NCCC(C)(C)O)ccc3C)cnc2N)cn1")
2.97
>>> measurement("CCCc1noc(-c2nc(-c3cc(S(=O)(=O)N[C@H]4CC[C@H](O)CC4)ccc3C)cnc2N)n1")
1.11
>>> measurement("Cc1cc(-c2nc(-c3cc(S(=O)(=O)N[C@H]4CC[C@@H](O)CC4)ccc3C)cnc2N)ccn1")
3.37
>>> measurement("CC(C)(O)CNS(=O)(=O)c1ccc(Cl)c(-c2cnc(N)c(-n3cncn3)n2)c1")
7.91
>>> measurement("Cc1ccc(S(=O)(=O)NCC2(C(N)=O)CC2)cc1-c1cnc(N)c(-n2cncn2)n1")
9.61
>>> measurement("Cc1ncc(-c2nc(-c3cc(S(=O)(=O)NCC4(CO)COC4)ccc3C)cnc2N)s1")
7.04
>>> measurement("Cc1ccc(S(=O)(=O)NC2CC2)cc1-c1cnc(N)c(-n2cncn2)n1")
0.65
>>> measurement("Cc1ccc(S(=O)(=O)NCCC(C)(C)O)cc1-c1cnc(N)c(-c2cnn(Cc3ccccc3)c2)n1 [Example 132, hydrochloride]")
1.28
>>> measurement("Cc1ncn(-c2nc(-c3cc(S(=O)(=O)NCC(C)(C)O)ccc3C)cnc2N)n1")
2.19
>>> measurement("Cc1ccc(S(=O)(=O)NCCC(C)(C)O)cc1-c1cnc(N)c(-c2cc(C(F)(F)F)nn2C)n1")
1.64
>>> measurement("Cc1ncc(-c2nc(-c3cc(S(=O)(=O)NC[C@H]4C[C@@H](O)C4)ccc3C)cnc2N)s1 [Example 20a]")
0.72
>>> measurement("Cc1ccc(S(=O)(=O)NCCC(C)(C)O)cc1-c1cnc(N)c(-c2cccnc2)n1")
4.9
>>> measurement("Cc1ncc(-c2nc(-c3cc(S(=O)(=O)NCC(C)(C)CO)ccc3C)cnc2N)s1")
0.75
>>> measurement("Cc1ccc(S(=O)(=O)N[C@H]2CC[C@H](O)CC2)cc1-c1cnc(N)c(-n2cccn2)n1")
2.25
>>> measurement("Cc1cc(-c2nc(-c3cc(S(=O)(=O)NCC4CCOC4)ccc3C)cnc2N)ccn1 (stereo not shown)")
4.92

###

Each item that follows carries a reported IC50.
tested.target: PI 4-kinase beta (Homo sapiens)
method.description: Kinase Glo Luminescent Kinase Assay (Kglo), assay D
Assay type: biochemical
condition.label: read-out: Assay D PI4Kβ IC50
quantity.kind: IC50

>>> measurement("CCCc1noc(-c2nc(-c3cc(S(=O)(=O)N[C@H]4CC[C@H](O)CC4)ccc3C)cnc2N)n1")
"> 9.1 µM"
>>> measurement("Cc1ccc(S(=O)(=O)NCC2(C)CCCO2)cc1-c1cnc(N)c(-c2cn(C)nc2C)n1 (stereo not shown)")
"> 10 µM"
>>> measurement("Cc1nc(C)n(-c2nc(-c3cc(S(=O)(=O)NCC(C)(C)O)ccc3C)cnc2N)n1")
"> 10 µM"
>>> measurement("Cc1ccc(S(=O)(=O)NCC2(O)CCCCC2)cc1-c1cnc(N)c(-n2cncn2)n1")
"> 10 µM"
>>> measurement("Cc1ncc(-c2nc(-c3cc(S(=O)(=O)NCC(C)(C)O)ccc3C)cnc2N)o1")
"> 10 µM"
>>> measurement("Cc1ccc(S(=O)(=O)NC2CCC(F)(F)CC2)cc1-c1cnc(N)c(-c2cnn(C)c2)n1")
"> 9.1 µM"
>>> measurement("Cc1cc(-c2nc(-c3cc(S(=O)(=O)NC4CCN(C)CC4)ccc3C)cnc2N)ccn1")
"> 9.1 µM"
>>> measurement("Cc1ccc(S(=O)(=O)N[C@H]2CC[C@@](C)(O)CC2)cc1-c1cnc(N)c(-n2cncn2)n1 [Example 69b]")
"> 10 µM"
>>> measurement("Cc1cc(-c2nc(-c3cc(S(=O)(=O)NCCN(C)C)ccc3C)cnc2N)ccn1")
"> 9.1 µM"
>>> measurement("CCc1noc(-c2nc(-c3cc(S(=O)(=O)NCCC(C)(C)O)ccc3C)cnc2N)n1")
"> 9.1 µM"
